Reference for the values: the Immune Epitope Database (IEDB)

testSystem: HLA-A*29:02
protocolText: IEDB peptide-MHC binding, purified MHC/competitive/fluorescence; filed as Kd, often an IC50 or EC50 that approximates it; bounds were set here for any values at or beyond the usual limits of such assays
conditionSummary: source organism: Campylobacter jejuni subsp. jejuni NCTC 11168 = ATCC 700819
measurementType: Kd

# return Kd of "LELAEITAE" (system: HLA-A*29:02)
≥ 20 µM

---

testSystem: HLA-A*02:03
protocolText: IEDB peptide-MHC binding, purified MHC/competitive/fluorescence; filed as Kd, often an IC50 or EC50 that approximates it; bounds were set here for any values at or beyond the usual limits of such assays
conditionSummary: source organism: Campylobacter jejuni subsp. jejuni NCTC 11168 = ATCC 700819
pKd: −log10 of the molar value.
measurementType: pKd

Find the measured pKd of "LELAEITAE" and report it.
≤ 4.70
